# assayConditions: buffer; pH 7.4; 200.0 µM
Given measured solubility kinetic, output MET if it is greater than or equal to 3 µg/mL and NOT MET if not.

Q. Could you tell me if the measured solubility kinetic of NC(=O)c1c(NC(=O)c2ccc(F)cc2)sc2c1CCC2 reaches 3 µg/mL or more?
A. NOT MET

Q. Record: CCOC(=O)c1cc(C)nc(Sc2ccc(C)cc2)c1C#N
A. MET

Q. Record: Cc1cc(NC(=O)CSc2nc3cc(Cl)ccc3o2)no1
A. NOT MET

Q. Record: O=C(COC(=O)c1cccc(Br)c1)NCC1CCCO1 (stereo unspecified)
A. MET

Q. Record: CC(c1ccccc1)n1c(S(=O)(=O)O)nc2ccccc21 (stereo unspecified)
A. MET

Q. Record: CC1NC(C)(C)Cc2c1ccc1ccccc21.Cl (stereo unspecified)
A. MET

---

So I've got a bunch of molecules here, and I need their solubility kinetic values.
# assayConditions: buffer; pH 7.4; 200.0 µM
One number for each entry, in µg/mL.

Before answering, review these 7 worked examples.
molecule: COCCN(C(=S)Nc1cccc(C)c1C)C(C)c1ccco1 (configuration not stated)
solubility kinetic [µg/mL]: 40.1
//
molecule: O=C(CNC(=O)c1ccc2ccccc2c1)NCc1ccc(F)cc1
solubility kinetic [µg/mL]: 1.9
//
molecule: Cc1ccc(NC(=O)N2CCN(c3ncccc3C(F)(F)F)CC2)cc1
solubility kinetic [µg/mL]: 1.5
//
molecule: Cc1c(C)n(CCc2ccccc2)c2ncnc(NCCCO)c12
solubility kinetic [µg/mL]: 48.3
//
molecule: COC(=O)c1ccccc1NC(=O)CN1CCCCCC1
solubility kinetic [µg/mL]: 31.6
//
molecule: Cc1cc(C)nc(NC(=S)Nc2ccc(F)cc2F)c1
solubility kinetic [µg/mL]: 1.7
//
molecule: COC(=O)c1ccc(Cn2cnc3cnccc32)cc1
solubility kinetic [µg/mL]: 29.9

Kindly review the next molecule as well.
Q. Quick check: solubility kinetic of O=C(NC1CCCCCCC1)c1ccc(F)cc1 ?
A. 25.8

---

# assayConditions: buffer; pH 7.4; 200.0 µM
reportedProperty: solubility kinetic

molecule: O=C(Nc1ccccn1)c1sc2cccc(F)c2c1Cl
assayResult: < 0.3 µg/mL
--
molecule: COc1ccc(S(=O)(=O)N2CCCC2)cc1C(=O)O
assayResult: > 42.8 µg/mL
--
molecule: NS(=O)(=O)c1ccc(NC(=O)COC(=O)CCCN2C(=O)c3cccc4cccc(c34)C2=O)cc1
assayResult: 8.8 µg/mL
--
molecule: O=C(NCCNc1ccc([N+](=O)[O-])cc1)c1ccc(Cl)cc1
assayResult: 1.9 µg/mL
--
molecule: Cl.Oc1ccc(Nc2ncnc3c2oc2ccccc23)cc1
assayResult: 0.7 µg/mL

I need solubility kinetic for every entry listed below, if you could help.
1. COc1ccccc1Nc1nc(NCc2ccco2)c2ccccc2n1.Cl
2. O=C(Nc1nccs1)C1CC(=O)N(c2ccc(Cl)cc2)C1 (centres undefined)
3. O=C1S/C(=C\c2cccs2)C(=O)N1c1ccc(O)cc1
4. CN1CCN(C(=O)c2cc3ccccc3[nH]2)CC1

A.
0.4 µg/mL
4.1 µg/mL
< 0.6 µg/mL
> 36.5 µg/mL

---

# assayConditions: buffer; pH 7.4; 200.0 µM
reportedProperty: solubility kinetic (µg/mL)
Numbers only, in µg/mL.

Before answering, review these 5 worked examples.
compound: CN1C/C(=C/c2ccncc2)C(=O)/C(=C/c2ccncc2)C1
solubility kinetic (µg/mL): 40.9

compound: Cc1[nH]c2ccccc2c1C(=O)CN1CC(C)OC(C)C1 (centres undefined)
solubility kinetic (µg/mL): 39.4

compound: CCOC(=O)c1ccccc1NC(=O)c1ccc2nc[nH]c2c1
solubility kinetic (µg/mL): 11.3

compound: O=S(=O)(Nc1ccccc1)c1ccc(NS(=O)(=O)c2cccs2)cc1
solubility kinetic (µg/mL): 34.4

compound: Cn1c(-c2cc3ccccc3oc2=O)nc2ccccc21
solubility kinetic (µg/mL): 2.5

I need solubility kinetic for every entry listed below, if you could help.
1. O=C(/C=C/c1cccc([N+](=O)[O-])c1)c1ccco1
2. O=C1c2cccc3cccc(c23)C(=O)N1c1cccc(O)c1
3. COC(=O)/C=C/COc1ccccc1[N+](=O)[O-]
4. O=C1CN(C(=O)COC(=O)c2ccc([N+](=O)[O-])s2)c2ccccc2N1
5. CCOC(=O)C1=C(C)N(C)C(=S)N(C)C1c1ccc(OC)cc1 (centres undefined)
6. CCOC(=O)C(CC(=O)O)NCc1ccco1 (centres undefined)
7. CN(C)CCNC(=S)NC1CCCCC1

A.
[1.7, 1.3, 17.9, 9.3, 19.8, 34.3, 32.7]

I need solubility kinetic for every entry listed below, if you could help.
1. COCCn1c(N)c(N(Cc2ccccc2)C(=O)Cc2ccccc2F)c(=O)[nH]c1=O
2. O=C(Nc1nc(-c2ccc(Cl)s2)cs1)c1ccco1
3. COc1ccc(C)cc1S(=O)(=O)NCc1cccs1
4. CC(=O)c1c(C)[nH]c(C(=O)OCc2cc(-c3ccco3)on2)c1C
5. Cc1ccc(C(C)NC(=O)C2CCCC2)c(C)c1 (centres undefined)

A.
1. 62.9
2. 9.2
3. 42.4
4. 2.5
5. 34.2

I need solubility kinetic for every entry listed below, if you could help.
1. Cc1ccc(S(=O)(=O)Nc2cccc(C(=O)NCC(c3ccc(F)cc3)N3CCOCC3)c2)cc1 (centres undefined)
2. CCCCn1c(O)c(C=NCc2ccc3c(c2)OCO3)c(=O)[nH]c1=O
3. CC1CN(C(=O)/C=C/c2ccc(SC(F)F)cc2)CC(C)O1 (centres undefined)

A.
[58.2, 6.8, 36.3]

I need solubility kinetic for every entry listed below, if you could help.
1. Fc1cccc(CN2CCC(Cc3ccccc3)CC2)c1
2. COc1ccccc1CC(=O)N(Cc1ccccc1)c1ccc(C)cc1
3. COc1ccccc1NC(=O)Cc1cccc2ccccc12

A.
1. 13.5
2. 10
3. 2.1

---

# assayConditions: buffer; pH 7.4; 200.0 µM
reportedProperty: log10(solubility kinetic) (log10 of the value in µg/mL)
The base-10 logarithm of solubility kinetic, taken with solubility kinetic in µg/mL, is what appears here.

Before answering, review these 3 worked examples.
smilesStructure: O=Cc1c(SCCO)nc2ccccn2c1=O
assayResult: 1.25

smilesStructure: COc1ccc(NC(=O)COC(=O)CCc2ccc(S(=O)(=O)N3CCOCC3)cc2)cc1Cl
assayResult: 1.29

smilesStructure: CCOC(=O)N1CCN(Cc2nc(-c3cccs3)no2)CC1
assayResult: 1.64

I need log10(solubility kinetic) for every entry listed below, if you could help.
1. Cc1occc1C(=O)O/N=C(\N)c1ccccc1
2. Cc1cccn2cc(-c3cc4ccccc4oc3=O)nc12
3. COc1ccc(NC(=O)NC2CCCCCCC2)cc1
4. Cc1cc(NC(=O)COC(=O)c2ccccc2[N+](=O)[O-])no1

A.
1: 1.56; 2: -0.22; 3: 0.40; 4: 1.33

---

# assayConditions: buffer; pH 7.4; 200.0 µM
So I've got a bunch of compounds here, and I need their solubility kinetic values.

Before answering, review these 5 worked examples.
compound: CCOc1cc(C)c(S(=O)(=O)N2CCCCC2)cc1C
reportedProperty: solubility kinetic
assayResult: 14.5 µg/mL
--
compound: Cc1cc(Cl)nc(Cl)c1C(=O)NCc1ccc(Cl)cc1
reportedProperty: solubility kinetic
assayResult: 6.8 µg/mL
--
compound: CCn1c(N)c(Br)c(=O)[nH]c1=O
reportedProperty: solubility kinetic
assayResult: > 35.1 µg/mL
--
compound: CCCn1c(SCC(=O)N2CCOCC2)nnc1-c1ccncc1
reportedProperty: solubility kinetic
assayResult: > 52.1 µg/mL
--
compound: Cn1c(SCC(=O)NC2CCCC2)nnc1-c1ccccn1
reportedProperty: solubility kinetic
assayResult: > 47.6 µg/mL

I need solubility kinetic for every entry listed below, if you could help.
1. O=C(c1ccc(Oc2ccc(Cl)cc2)c([N+](=O)[O-])c1)N1CCCC1
2. CC1CCCN(C(=O)C2CCN(S(=O)(=O)c3ccccc3)CC2)C1 (configuration not stated)
3. O=C(O)c1cc(Oc2ccc(C(F)(F)F)cc2Cl)ccc1[N+](=O)[O-]
4. O=C1/C(=C\c2ccc(Cl)cc2Cl)N2CCC1CC2

A.
41.1 µg/mL
> 52.6 µg/mL
> 54.2 µg/mL
8.9 µg/mL

I need solubility kinetic for every entry listed below, if you could help.
1. CC(=O)Nc1ccc(S(=O)(=O)NCc2ccncc2)cc1
2. O=C1CCCN1CCCNC(=S)Nc1ccccc1Cl

A.
1: > 45.8 µg/mL; 2: 38.4 µg/mL

Q. Quick check: solubility kinetic of CCOc1ccc(CN(C)C(=O)CNC(=O)C2CCCCC2)cc1 ?
A. > 49.9 µg/mL

---

So I've got a bunch of compounds here, and I need their solubility kinetic values.
# assayConditions: buffer; pH 7.4; 200.0 µM

I need solubility kinetic for every entry listed below, if you could help.
1. O=C(c1ccc(-c2ccccc2)cc1)N1CCN(c2ccc(F)cc2)CC1
2. O=c1[nH]c2ccccc2nc1NCc1ccccc1
3. COc1ccc2nc(Nc3ccccc3OC)sc2c1
4. CS(=O)(=O)N(CC(=O)N1CCCC1)c1ccc(Cl)cc1
5. Cc1ccccc1NC(=O)CN1CCN(Cc2ccccc2)CC1
6. Cc1ccc(CSCc2ccc(C(=O)NCCC(C)C)o2)cc1

A.
2.4 µg/mL
3.9 µg/mL
3.8 µg/mL
> 47.5 µg/mL
44.3 µg/mL
2.2 µg/mL

I need solubility kinetic for every entry listed below, if you could help.
1. Cc1cc(C)nc(NC2=NCCN2C(=S)Nc2ccc(C)c(C)c2)n1
2. COc1ccc(SCC2CN(C)CCC2c2ccc(F)cc2)cc1.Cl (configuration not stated)
3. Cc1cnc(C(=O)Nc2ccc(OC(F)(F)F)cc2)cn1
4. CCOn1c(=O)c(-c2ccc(C)cc2)[n+]([O-])c2ccccc21
5. Cc1cccc(OCC(=O)Nc2ccccc2F)c1
6. O=C(CSC(=S)N1CCSCC1)c1ccc(Cl)cc1

A.
1: 2.4 µg/mL; 2: 32.5 µg/mL; 3: 2.6 µg/mL; 4: 33.5 µg/mL; 5: 13.4 µg/mL; 6: < 0.7 µg/mL

Source listed as PubChem BioAssay AID1996.
